- study_system: Neuropilin-1 (Homo sapiens)
- Sequence (O14786 whole entry): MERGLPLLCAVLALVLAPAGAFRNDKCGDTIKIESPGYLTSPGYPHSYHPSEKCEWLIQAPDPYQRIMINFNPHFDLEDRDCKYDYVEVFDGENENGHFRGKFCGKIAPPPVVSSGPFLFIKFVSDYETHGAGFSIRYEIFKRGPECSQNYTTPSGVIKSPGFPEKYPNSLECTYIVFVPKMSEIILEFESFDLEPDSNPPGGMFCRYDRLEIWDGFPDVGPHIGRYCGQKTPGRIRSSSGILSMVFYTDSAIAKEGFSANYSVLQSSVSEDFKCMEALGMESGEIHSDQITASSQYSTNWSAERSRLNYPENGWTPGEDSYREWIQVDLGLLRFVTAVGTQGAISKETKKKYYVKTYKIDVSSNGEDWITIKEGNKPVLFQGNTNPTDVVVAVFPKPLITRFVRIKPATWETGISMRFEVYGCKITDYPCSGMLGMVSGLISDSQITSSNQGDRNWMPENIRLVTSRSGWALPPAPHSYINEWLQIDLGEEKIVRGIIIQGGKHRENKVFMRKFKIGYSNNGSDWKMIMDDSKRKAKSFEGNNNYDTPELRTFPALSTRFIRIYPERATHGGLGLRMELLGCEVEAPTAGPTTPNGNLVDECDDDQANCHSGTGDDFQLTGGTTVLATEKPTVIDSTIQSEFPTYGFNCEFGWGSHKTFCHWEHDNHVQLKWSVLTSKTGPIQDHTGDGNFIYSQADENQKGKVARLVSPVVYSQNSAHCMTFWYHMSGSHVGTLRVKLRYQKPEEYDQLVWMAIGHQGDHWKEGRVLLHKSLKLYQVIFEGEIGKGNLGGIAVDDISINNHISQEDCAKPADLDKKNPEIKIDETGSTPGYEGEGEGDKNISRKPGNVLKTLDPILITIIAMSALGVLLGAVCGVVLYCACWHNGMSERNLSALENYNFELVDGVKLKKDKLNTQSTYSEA
- assay_overview: Inhibition of VEGF165-NRP1 interaction by ELISA
pIC50: −log10 of the molar value.
readout_label: pIC50

Sample records with pIC50:
smi=CN(C)CCCOc1ccc(-c2c(C#N)c3cccc(Cl)n3c2NCCc2ccccc2)cc1 readout_label=pIC50 assay_value=5.00
smi=N#Cc1c(-c2ccccc2S)c(NCCc2ccccc2)n2c(Cl)cccc12 readout_label=pIC50 assay_value=5.00
smi=N#Cc1c(-c2ccc(F)c3ccccc23)c(NCCc2ccccc2)n2c(Cl)cccc12 readout_label=pIC50 assay_value=5.40
smi=N#Cc1c(CCO)c(NCCc2ccccc2)n2c(Cl)cccc12 readout_label=pIC50 assay_value=4.89
smi=CSc1ccc(-c2c(C#N)c3cccc(Cl)n3c2NCCc2ccccc2)cc1 readout_label=pIC50 assay_value=5.52
smi=N#Cc1c(-c2ccncc2)c(NCCc2ccccc2)n2c(Cl)cccc12 readout_label=pIC50 assay_value=5.22

a. N#Cc1c(-c2ccccc2)c(NCCc2ccc(Cl)cc2)n2c(Cl)cccc12
b. Cc1ccccc1-c1c(C#N)c2cccc(Cl)n2c1NCCc1ccccc1
c. N#Cc1c(-c2cccc(F)c2)c(NCCc2ccccc2)n2c(Cl)cccc12
Query string: Parameters: sort_field (pIC50), sort_dir (desc). # output: labels, in the requested order
Result string: c, a, b
(c: 5.70, a: 5.40, b: 5.05)
